Each record here notes measured EC50, neutralization of spike pseudotyped virus.
- target under test: SARS-COV-2 spike, Wuhan (original) (SARS-COV-2, UniProt P0DTC2 14-1273)
- assay info: cell-based or functional assay
Report as a plain number; the unit nM is understood.

These solved cases illustrate the format of a correct answer.
>  <binder>
AP1D4 Nb-huFc (Fc fusion) EVQLQASGGGFVQPGGSLRLSCAASGHTFDAHRMGWFRQAPGKEREFVSAISSWGQSSTYYADSVKGRFTISRDNSKNTVYLQMNSLRAEDTATYYCAQTDEGNQYVYWGQGTQVTVSS

>  <experimental result>
6.62

$$$$
>  <binder>
AP1A5 Nb-huFc (Fc fusion) EVQLQASGGGFVQPGGSLRLSCAASGSTASHYTMGWFRQAPGKEREFVSAISSGRDHAKQYADSVKGRFTISRDNSKNTVYLQMNSLRAEDTATYYCAYEEINATQKDTLYWGQGTQVTVSS

>  <experimental result>
11.9

$$$$
>  <binder>
BP1A10 Nb-huFc (Fc fusion) EVQLQASGGGFVQPGGSLRLSCAASGQPSDRYIMGWFRQAPGKEREFVSAISQGAANKTAYADSVKGRFTISRDNSKNTVYLQMNSLRAEDTATYYCATHFNWQNYSYWGQGTQVTVSS

>  <experimental result>
8.38

$$$$
>  <binder>
AP1C3 Nb-huFc (Fc fusion) EVQLQASGGGFVQPGGSLRLSCAASGRTYRGYSMGWFRQAPGKEREFVSAISSWSDDWTAYADSVKGRFTISRDNSKNTVYLQMNSLRAEDTATYYCAWQYIDEIQYYWGQGTQVTVSS

>  <experimental result>
1.04

$$$$

Request the reported EC50, neutralization of spike pseudotyped virus associated with AP1B6 Nb-huFc (Fc fusion) EVQLQASGGGFVQPGGSLRLSCAASGSAFQIYAMGWFRQAPGKEREFVSAISSTDSETDHYADSVKGRFTISRDNSKNTVYLQMNSLRAEDTATYYCAVNGFDYAHSKAGPQVYWGQGTQVTVSS
3.32

And BP2A6 Nb-huFc (Fc fusion) EVQLQASGGGFVQPGGSLRLSCAASGQTFSHYIMGWFRQAPGKEREFVSAISAGQGHATYYADSVKGRFTISRDNSKNTVYLQMNSLRAEDTATYYCAKYQDTIAPLYWGQGTQVTVSS ?
0.77
